// data source = patent US6831075B2

- subject.of.test: baculoviral GST-MLK1KD (Homo sapiens, UniProt P80192)
- Construct: 1 μg/ml of baculoviral GST-MLK1KD; GST (N); host or cells: baculovirus expression system
- Sequence (P80192 144-412 limits assumed): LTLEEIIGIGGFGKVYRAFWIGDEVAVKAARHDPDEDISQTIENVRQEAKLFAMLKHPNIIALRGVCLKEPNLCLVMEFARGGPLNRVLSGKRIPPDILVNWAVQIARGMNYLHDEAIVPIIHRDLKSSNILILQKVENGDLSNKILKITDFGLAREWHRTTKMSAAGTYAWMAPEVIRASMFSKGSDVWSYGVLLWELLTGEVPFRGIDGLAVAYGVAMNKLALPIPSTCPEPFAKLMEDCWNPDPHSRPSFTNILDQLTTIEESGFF
- assay.explanation: Mixed Lineage Kinase-1 inhibition assay (Millipore Multiscreen TCA in-plate, 32P)
- Assay type: biochemical
- measurement.parameters: 1 uM compound; 60 μM ATP
Kindly return class 1 if reported MLK-1 Kinase % inhibition @ 1 uM is no lower than 20%; return class 0 if it is lower.

COc1ccc2[nH]cc(C=C3C(=O)NN=C3c3ccoc3)c2c1	class 1
Cc1cc(C)c(C=C2C(=O)NN=C2c2csc(-c3ccccc3)n2)[nH]1	class 1
COc1ccc2[nH]cc(C=C3C(=O)NN=C3c3ccco3)c2c1	class 1
Cc1[nH]c(C=C2C(=O)NN=C2c2ccoc2)c(Br)c1Br	class 0
Cc1nc(C)c(C2=NNC(=O)C2=Cc2c[nH]c3ccccc23)s1	class 0

====

- subject.of.test: baculoviral GST-MLK2KDLZ (Homo sapiens)
- Construct: 3 μg/ml of baculoviral GST-MLK2KDLZ; GST (N); host or cells: baculovirus expression system
- Sequence (Q02779 98-440 limits assumed): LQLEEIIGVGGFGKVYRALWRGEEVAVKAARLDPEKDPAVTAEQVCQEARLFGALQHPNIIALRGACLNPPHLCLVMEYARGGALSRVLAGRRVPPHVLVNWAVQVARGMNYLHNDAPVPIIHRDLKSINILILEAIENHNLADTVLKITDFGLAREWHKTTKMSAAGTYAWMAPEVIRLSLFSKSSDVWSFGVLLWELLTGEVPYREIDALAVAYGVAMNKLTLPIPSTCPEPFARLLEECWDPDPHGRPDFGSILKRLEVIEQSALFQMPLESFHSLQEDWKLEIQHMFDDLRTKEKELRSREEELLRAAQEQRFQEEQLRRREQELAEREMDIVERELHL
- assay.explanation: Mixed Lineage Kinase-2 inhibition assay (Millipore Multiscreen plate, 32P)
- Assay type: biochemical
- measurement.parameters: 1 uM compound; 100 μM ATP
assay.readout: MLK-2 Kinase % inhibition @ 1 uM (%)

Cc1cc(C)c(C=C2C(=O)NN=C2c2csc(-c3ccccc3)n2)[nH]1	−8
Cn1cc(C=C2C(=O)NN=C2c2nccs2)c2ccccc21	9
Cc1[nH]c(C=C2C(=O)NN=C2c2ccoc2)c(Br)c1Br	0
O=C1NN=C(c2nccs2)C1=Cc1cn(CCOCc2ccccc2)c2ccccc12	3
O=C1NN=C(c2ccco2)C1=Cc1c[nH]c2ccc(F)cc12	3
Cc1cc(C)c(C=C2C(=O)NN=C2c2cccn2C)[nH]1	2
N#CCCn1cc(C=C2C(=O)NN=C2c2ccco2)c2ccccc21	−1
Cn1cccc1C1=NNC(=O)C1=Cc1c[nH]c2ccc(F)cc12	−14
Cn1cc(C=C2C(=O)NN=C2c2cc3ccccc3o2)c2ccccc21	−8
CCOC(=O)CCc1c(C(=O)OCC)[nH]c(C=C2C(=O)NN=C2c2ccoc2)c1CC(=O)OCC	−12
Cc1cc(C)c(C=C2C(=O)NN=C2c2c(C)coc2C)[nH]1	−4
Cc1cccc2c(C=C3C(=O)NN=C3c3ccoc3)c[nH]c12	−13
CC(C)Cn1cc(C=C2C(=O)NN=C2c2nccs2)c2ccccc21	12
Cn1cc(C=C2C(=O)NN=C2c2cccs2)c2ccccc21	1
Cc1cc(C)c(C=C2C(=O)NN=C2c2sc(C)nc2C)[nH]1	−18
O=C1NN=C(c2nccs2)C1=Cc1cn(Cc2ccccc2)c2ccccc12	5

====

- subject.of.test: recombinant human baculovirus-expressed VEGFR1 cytoplasmic domain (Homo sapiens, UniProt P17948)
- Construct: recombinant human baculovirus-expressed VEGFR1 cytoplasmic domain; host or cells: baculovirus expression system
- Sequence (P17948 781-1338 limits assumed): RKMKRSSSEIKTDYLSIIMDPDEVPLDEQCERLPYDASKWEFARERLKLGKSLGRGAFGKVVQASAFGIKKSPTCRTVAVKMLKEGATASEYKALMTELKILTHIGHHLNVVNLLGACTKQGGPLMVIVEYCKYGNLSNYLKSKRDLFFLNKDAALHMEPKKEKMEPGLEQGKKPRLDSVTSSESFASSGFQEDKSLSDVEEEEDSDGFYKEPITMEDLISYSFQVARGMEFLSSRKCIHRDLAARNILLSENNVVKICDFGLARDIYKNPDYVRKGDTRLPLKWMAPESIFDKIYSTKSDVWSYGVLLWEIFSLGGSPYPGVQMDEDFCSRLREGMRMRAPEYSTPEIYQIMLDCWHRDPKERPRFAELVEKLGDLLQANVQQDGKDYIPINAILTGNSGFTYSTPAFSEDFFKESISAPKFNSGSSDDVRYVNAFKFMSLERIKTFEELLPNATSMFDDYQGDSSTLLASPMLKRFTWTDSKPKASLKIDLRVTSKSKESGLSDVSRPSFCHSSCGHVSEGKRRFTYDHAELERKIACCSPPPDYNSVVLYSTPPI
- assay.explanation: VEGFR1 kinase inhibition assay (ELISA-based, time-resolved fluorescence)
- Format: biochemical
- measurement.parameters: 1 uM compound; 30 μM ATP
Kindly return t if reported VEGFR-1 kinase % inhibition @ 1 uM is no lower than 20%; return f if it is lower.

Cn1cc(C=C2C(=O)NN=C2c2nccs2)c2ccccc21	t
O=C1NN=C(c2ccco2)C1=Cc1c[nH]c2ccc(F)cc12	t
CCOC(=O)CCc1c(C(=O)OCC)[nH]c(C=C2C(=O)NN=C2c2ccoc2)c1CC(=O)OCC	f
O=C1NN=C(c2ccoc2)C1=Cc1ccc[nH]1	t
O=C1NN=C(c2ccco2)C1=Cc1cn(CCOCc2ccccc2)c2ccccc12	f
O=C1NN=C(c2ccoc2)C1=Cc1c[nH]c2ccccc12	t
CC(C)Cn1cc(C=C2C(=O)NN=C2c2nccs2)c2ccccc21	f
Cc1oc(-c2ccc(Cl)cc2)cc1C1=NNC(=O)C1=Cc1c[nH]c2ccccc12	f
COC(=O)c1ccc2[nH]cc(C=C3C(=O)NN=C3c3ccoc3)c2c1	f
Cn1ccc(C2=NNC(=O)C2=Cc2c[nH]c3ccc(F)cc23)c1	t
O=C1NN=C(c2cccs2)C1=Cc1cn(Cc2ccccc2)c2ccccc12	f
Cc1cccc2c(C=C3C(=O)NN=C3c3ccco3)c[nH]c12	t
O=C1NN=C(c2ccco2)C1=Cc1c[nH]c2cccc(OCc3ccccc3)c12	f
Cc1cccc2c(C=C3C(=O)NN=C3c3ccoc3)c[nH]c12	t
Cn1cc(C=C2C(=O)NN=C2c2cccs2)c2ccccc21	t
N#CCCn1cc(C=C2C(=O)NN=C2c2ccoc2)c2ccccc21	t
O=C1NN=C(c2ccoc2)C1=Cc1c[nH]c2ccc(F)cc12	t
N#CCCn1cc(C=C2C(=O)NN=C2c2nccs2)c2ccccc21	t
